Reported half-life is given for each of the following compounds.
ASSAY_REMARKS: Plasma pharmacokinetics of ginsenosides in rats after 1-week repeated RGE
RECORDED_CONDITIONS: rat, plasma, po, 1.5 g/kg/day

COMPOUND: CC(C)=CCC[C@](C)(O[C@@H]1O[C@H](CO[C@@H]2O[C@H](CO)[C@@H](O)[C@H](O)[C@H]2O)[C@@H](O)[C@H](O)[C@H]1O)[C@H]1CC[C@]2(C)[C@@H]1[C@H](O)C[C@@H]1[C@@]3(C)CC[C@H](O[C@@H]4O[C@H](CO)[C@@H](O)[C@H](O)[C@H]4O[C@@H]4O[C@H](CO)[C@@H](O)[C@H](O)[C@H]4O)C(C)(C)[C@@H]3CC[C@]12C [Rb1, ginsenoside Rb1]
half-life, h: 16.9
//
COMPOUND: CC(C)=CCC[C@](C)(O[C@@H]1O[C@H](CO)[C@@H](O)[C@H](O)[C@H]1O)[C@H]1CC[C@]2(C)[C@@H]1[C@H](O)C[C@@H]1[C@@]3(C)CC[C@H](O[C@@H]4O[C@H](CO)[C@@H](O)[C@H](O)[C@H]4O[C@@H]4O[C@H](CO)[C@@H](O)[C@H](O)[C@H]4O)C(C)(C)[C@@H]3CC[C@]12C [Rd, ginsenoside Rd]
half-life, h: 43.5
//
COMPOUND: CC(C)=CCC[C@](C)(O[C@@H]1O[C@H](CO[C@@H]2O[C@@H](CO)[C@H](O)[C@H]2O)[C@@H](O)[C@H](O)[C@H]1O)[C@H]1CC[C@]2(C)[C@@H]1[C@H](O)C[C@@H]1[C@@]3(C)CC[C@H](O[C@@H]4O[C@H](CO)[C@@H](O)[C@H](O)[C@H]4O[C@@H]4O[C@H](CO)[C@@H](O)[C@H](O)[C@H]4O)C(C)(C)[C@@H]3CC[C@]12C [Rc, ginsenoside Rc]
half-life, h: 24.2
//
COMPOUND: CC(C)=CCC[C@](C)(O[C@@H]1O[C@H](CO[C@@H]2OC[C@H](O)[C@H](O)[C@H]2O)[C@@H](O)[C@H](O)[C@H]1O)[C@H]1CC[C@]2(C)[C@@H]1[C@H](O)C[C@@H]1[C@@]3(C)CC[C@H](O[C@@H]4O[C@H](CO)[C@@H](O)[C@H](O)[C@H]4O[C@@H]4O[C@H](CO)[C@@H](O)[C@H](O)[C@H]4O)C(C)(C)[C@@H]3CC[C@]12C [Rb2, ginsenoside Rb2]
half-life, h: 30.2
